Kindly supply the reported polymerase ribozyme fitness (log ratio) values for the records listed here.
B1: TPR 5TU (parent)
chain: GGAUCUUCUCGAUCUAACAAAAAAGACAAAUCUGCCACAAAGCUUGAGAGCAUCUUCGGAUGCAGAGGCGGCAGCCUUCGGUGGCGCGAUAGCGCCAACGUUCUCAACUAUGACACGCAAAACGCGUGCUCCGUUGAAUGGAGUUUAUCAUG

variants of: B1; assay: polymerase ribozyme fitness, log enrichment relative to wild type (log ratio); higher = more active; in vitro selection for triplet polymerase activity
Fewer inactive variants are shown than the library holds.

Give polymerase ribozyme fitness (log ratio) for each of the items listed below.
1. A20C A24U C93U U130G A150G
2. G84A U135A
3. A20U G58A C96U U111G G124A U148A
4. A47C G50C
5. C32U U55G U61C G84U G100C
6. G59C U61G G84A C95G A120C G143U
7. U15C C38A U61A C87U A122G
8. A26C G81A C85G C87A G141U C149G

1: ≤ -4.2; 2: -1.69; 3: ≤ -4.2; 4: -4.1; 5: ≤ -4.2; 6: -4.18; 7: -2.73; 8: ≤ -4.2

These data points were gathered from the RNAGym collection of RNA variant scans (doi:10.1073/pnas.2313332121).
